Tested on: Rattus norvegicus
Test: In vivo antagonist activity at androgen receptor in immature Sprague-Dawley rat prostate weight model assessed as testosterone propionate-induced weight of seminal vesicles over full body weight at 10 mg/kg, po qd administered for 4 days
Assay type: functional
Set-up: scale not given: the % may be the effect or the level left
Known Activity of a selection of molecules
Please give a number only; it is taken to be in %.

Please review the following examples before continuing.
C[C@]12O[C@@](C)(C[C@H]1NS(=O)(=O)c1cccnc1)[C@H]1C(=O)N(c3ccc(C#N)c(C(F)(F)F)c3)C(=O)[C@H]12 ... 23
CN(C(=O)[C@@H]1C[C@]2(C)O[C@]1(C)[C@@H]1C(=O)N(c3ccc(C#N)c(C(F)(F)F)c3)C(=O)[C@@H]12)c1ccccc1 ... 43

Below: the item to evaluate.
Exercise: # query: Activity of entry `C[C@]12O[C@@](C)(C[C@H]1NS(=O)(=O)c1ccccc1)[C@H]1C(=O)N(c3ccc(C#N)c(C(F)(F)F)c3)C(=O)[C@H]12`
Solution: 31
